Source: patent US12024506B2

target: GST-human KRas166 (G12V) GPPNHP (Homo sapiens, UniProt P01116, G12V); construct: made in house; host or cells: E. coli C41(DE3); test: KRas small-molecule screening by SPR (Biacore T200); format: binding; details: compound 100 uM, 5% DMSO buffer; immobilised GST-KRas166 (G12V) GPPNHP
Listed next: entries and their corresponding SPR Response Units.
Measured quantity: SPR Response Units (Response Units)

INSERT INTO results (compound, measured_quantity, reported_result) VALUES
  ('COc1nc(-c2cccc3c2OCCO3)ccc1Nc1ccc(CN2CCN(Cc3cccnc3)CC2)cc1 [Example 199]', 'SPR Response Units', 93),
  ('COc1nc(-c2cccc3c2OCCO3)ccc1NC1CCN(C(C)=O)CC1 [Example 99]', 'SPR Response Units', 33),
  ('COc1ccc(-c2cccc3c2OC(CNC(=O)c2ccc(CN4CCN(C)CC4)o2)CO3)cn1 (centres unmarked) [Example 45a]', 'SPR Response Units', 90),
  ('CN(C)Cc1cccc(Nc2ccc(-c3cccc4c3OC(CNC(=O)C3CCOCC3)CO4)nc2)c1 (centres unmarked) [Example 93]', 'SPR Response Units', 39),
  ('COc1nc(-c2cccc3c2OCCO3)ccc1Nc1cccc(CC(=O)NCC2CCN(C)CC2)c1 [Example 202]', 'SPR Response Units', 387),
  ('COc1cc(NC(=O)[C@@H]2CCNC2)cc(-c2cccc3c2OCCO3)n1 [Example 17]', 'SPR Response Units', 84),
  ('COc1nc(-c2cccc3c2OCCO3)ccc1Nc1cccc(CNCc2cn[nH]c2)c1 [Example 126]', 'SPR Response Units', 210),
  ('COc1nc(-c2cccc3c2OCCO3)ccc1Nc1ccc(Cn2ccnc2)cc1 [Example 58]', 'SPR Response Units', 269),
  ('CN1CCC(COc2ccc(-c3cccc4c3OCCO4)nn2)CC1 [Example 85]', 'SPR Response Units', 20),
  ('COc1nc(-c2cccc3c2OC(CNC(=O)C2CCOCC2)CO3)ccc1Nc1ccc(CNCc2ccccn2)cc1 (centres unmarked) [Example 118]', 'SPR Response Units', 291),
  ('COc1nc(-c2cccc3c2OC(CNC(=O)C2CCOCC2)CO3)ccc1Nc1cccc(CN2CCN(C(C)=O)CC2)c1 (centres unmarked) [Example 90]', 'SPR Response Units', 140),
  ('COc1nc(-c2cccc3c2OCCO3)ccc1Nc1ccc(CNCC2CCN(Cc3ccccc3)CC2)cc1 [Example 187]', 'SPR Response Units', 916),
  ('COc1cc(NC(=O)[C@H]2CC[C@@H](N)CC2)cc(-c2cccc3c2OCCO3)n1 [Example 21]', 'SPR Response Units', 66),
  ('c1cc2c(c(-c3ccc(Nc4ccc(CNCC5COCCN5)cc4)nn3)c1)OCCO2 (centres unmarked) [Example 154]', 'SPR Response Units', 59),
  ('COc1nc(-c2cccc3c2OCCO3)ccc1Nc1ccc(C(=O)NCc2cccc(C)n2)cc1 [Example 174]', 'SPR Response Units', 43),
  ('COc1nc(-c2cccc3c2OCCO3)ccc1Nc1ccc(CNCc2cccc(F)n2)cc1 [Example 188]', 'SPR Response Units', 103),
  ('COc1nc(-c2cccc3c2OCCO3)ccc1Nc1cccc(CNCC2CCC(=O)NC2)c1 (centres unmarked) [Example 195]', 'SPR Response Units', 176);

###

Biological target: GST-human KRas166 (G12V) GPPNHP (Homo sapiens, UniProt P01116, G12V)
Construct: made in house; host or cells: E. coli C41(DE3)
Experiment: KRas small-molecule screening by SPR (Biacore T200)
Format: binding
Settings: compound 100 uM, 5% DMSO buffer; immobilised GST-KRas166 (G12V) GPPNHP
Experimental: For SPR assays pGEX-KRAS(G12V) plasmid was transformed into E. coli C41(DE3). Bacterial cells were cultured at 37° C. to an OD600 of 0.6 and induced with IPTG (final 0.1 mM) at 18° C. over night. […]
Listed next: entries and their corresponding SPR Response Units.
Measured quantity: SPR Response Units (Response Units)

INSERT INTO assay_data (compound, measured_quantity, uom, reported_result) VALUES
  ('O=C(NCC1COc2cccc(-c3ccc(OCCN4CCOCC4)cn3)c2O1)C1CCOCC1 (stereo not drawn)', 'SPR Response Units', 'Response Units', 29),
  ('COc1cc(NC(=O)N[C@@H]2CC[C@H](NC(=O)OCc3ccccc3)C2)cc(-c2cccc3c2OC(CNC(=O)C2CCOCC2)CO3)n1 (stereo partly drawn)', 'SPR Response Units', 'Response Units', 97),
  ('COc1cc(NC(=O)[C@@H]2CC[C@H](N)C2)cc(-c2cccc3c2OCCO3)n1', 'SPR Response Units', 'Response Units', 96),
  ('COc1nc(-c2cccc3c2OCCO3)ccc1Nc1cccc(CNCC2CCN(Cc3ccccc3)CC2)c1', 'SPR Response Units', 'Response Units', 665),
  ('COc1nc(-c2cccc3c2OC(CNC(=O)C2CCOCC2)CO3)ccc1Nc1cccc(CN(C)C)c1 (stereo not drawn)', 'SPR Response Units', 'Response Units', 59),
  ('COc1cccc(-c2cccc3c2OC(CNC(=O)c2ccc(OCCN(C)C)cc2)CO3)n1 (stereo not drawn)', 'SPR Response Units', 'Response Units', 127),
  ('COc1nc(-c2cccc3c2OCCO3)ccc1Nc1ccc(C(=O)NCc2cc[nH]c(=O)c2)cc1', 'SPR Response Units', 'Response Units', 16),
  ('CN1CCN(Cc2ccc(C(=O)NCC3COc4cccc(-c5cn(C)cn5)c4O3)o2)CC1 (stereo not drawn)', 'SPR Response Units', 'Response Units', 50),
  ('COc1nc(-c2cccc3c2OCCO3)ccc1Nc1cccc([C@@H]2CCCN2)c1', 'SPR Response Units', 'Response Units', 112),
  ('COc1nc(-c2cccc3c2OCCO3)ccc1Nc1cccc(CC(=O)NC2CCN(C)CC2)c1', 'SPR Response Units', 'Response Units', 339),
  ('CN1CCN(Cc2ccc(C(=O)NCC3COc4cccc(-c5ccn[nH]5)c4O3)o2)CC1 (stereo not drawn)', 'SPR Response Units', 'Response Units', 62),
  ('COc1nc(-c2cccc3c2OCCO3)ccc1Nc1cccc(CN(C)C)c1', 'SPR Response Units', 'Response Units', 130),
  ('COc1nc(-c2cccc3c2OC(CNC(=O)C2CCOCC2)CO3)ccc1Nc1ccc(CNCc2ccn[nH]2)cc1 (stereo not drawn)', 'SPR Response Units', 'Response Units', 230),
  ('CN(C)Cc1cccc(Nc2ccc(-c3cccc4c3OCCO4)[nH]c2=O)c1', 'SPR Response Units', 'Response Units', 90),
  ('COc1nc(-c2cccc3c2OCCO3)ccc1Nc1cccc(C(=O)NCC2CCN(Cc3ccccc3)CC2)c1', 'SPR Response Units', 'Response Units', 149);

###

biological target: GST-human KRas166 (G12V) GPPNHP (Homo sapiens, UniProt P01116, G12V); construct: made in house; host or cells: E. coli C41(DE3); test: KRas small-molecule screening by SPR (Biacore T200); type: binding; conditions: compound 100 uM, 5% DMSO buffer; immobilised GST-KRas166 (G12V) GPPNHP
Class label 1: SPR Response Units at least 30 Response Units. Class label 0: SPR Response Units below 30 Response Units.

INSERT INTO measurements (molecule, qualitative_label) VALUES
  ('CN(C)Cc1cccc(Nc2ccnc(-c3cccc4c3OC(CNC(=O)C3CCOCC3)CO4)c2)c1 (stereo not shown)', 'label 1'),
  ('COc1cc(NC(=O)C2CCNCC2)cc(-c2cccc3c2OCCO3)n1', 'label 1'),
  ('COc1cc(N)cc(-c2cccc3c2OCCO3)n1', 'label 0'),
  ('COc1nc(-c2cccc3c2OCCO3)ccc1Nc1cccc(C(=O)NCC2CCN(C)CC2)c1', 'label 1'),
  ('COc1cccc(-c2cccc3c2OC(CN(Cc2ccc(OCCN(C)C)cc2)Cc2cccnc2)CO3)n1 (stereo not shown)', 'label 1'),
  ('COc1nc(Nc2cccc3c2OC(CNC(=O)c2ccc(CN4CCN(C)CC4)o2)CO3)ccc1NC(=O)[C@H]1CCCN1 (stereo partly shown)', 'label 1'),
  ('CN(C)CCOc1ccc(C(=O)NCC2COc3cccc(-c4cccc(N(C)C)n4)c3O2)cc1 (stereo not shown)', 'label 1'),
  ('COc1nc(-c2cccc3c2OCCO3)ccc1Nc1cccc(C(=O)NCC2CCC(=O)NC2)c1 (stereo not shown)', 'label 1'),
  ('COc1nc(-c2cccc3c2OCCO3)ccc1Nc1ccc(CNCC2CCN(C)CC2)cc1', 'label 1'),
  ('COc1cc(-c2cccc3c2OCCO3)ccc1Nc1ccc(CNCC2COCCN2)cc1 (stereo not shown)', 'label 1'),
  ('COc1cccc(-c2cccc3c2OC(CNC(=O)CCN(C)C)CO3)n1 (stereo not shown)', 'label 0'),
  ('COc1nc(-c2cccc3c2OCCO3)ccc1Nc1cccc(CN2CCN(Cc3cn[nH]c3)CC2)c1', 'label 1'),
  ('COc1nc(-c2cccc3c2OCCO3)ccc1Nc1cccc(CNC(=O)c2cccnc2)c1', 'label 1'),
  ('CC(C)(C)OC(=O)NCc1ccc(C(=O)N2CCN(c3cccc4c3OCCO4)CC2)cc1', 'label 0');
